biological target: Full-length, GST-tagged, human CaMKIIδ (Homo sapiens); construct: Full-Length, Glutathione-S-Transferase(GST)-Tagged, Human CaMKIIδ was purchased from Carna Biosciences; purchased Carna Biosciences 02-111; assay: CaMKIIδ binding assay (TR-FRET with BODIPY-labeled probe ligand); details: Table 2; activity class for CaMKIIδ
Sequence (Q13557 1-478 isoform Q13557-12): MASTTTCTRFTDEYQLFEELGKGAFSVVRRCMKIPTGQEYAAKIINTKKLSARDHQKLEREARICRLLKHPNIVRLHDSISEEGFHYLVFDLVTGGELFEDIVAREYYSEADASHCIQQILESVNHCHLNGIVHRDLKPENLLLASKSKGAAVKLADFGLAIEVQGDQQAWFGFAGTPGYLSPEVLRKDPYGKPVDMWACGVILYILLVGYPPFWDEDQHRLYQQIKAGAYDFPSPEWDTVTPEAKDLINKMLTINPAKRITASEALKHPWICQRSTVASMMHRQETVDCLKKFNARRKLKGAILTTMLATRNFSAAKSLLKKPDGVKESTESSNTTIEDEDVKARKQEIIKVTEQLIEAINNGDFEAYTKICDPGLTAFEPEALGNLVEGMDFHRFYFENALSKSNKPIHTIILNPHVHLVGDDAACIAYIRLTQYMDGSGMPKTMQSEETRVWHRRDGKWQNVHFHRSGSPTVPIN
parameter.measured: IC50

C[C@@H](Cn1cnnn1)Oc1cc(-c2cnc(Nc3cn(Cc4nc5ccccc5[nH]4)nc3C(F)(F)F)nc2)ccc1Cl 10 to 100 nM

Value sought for every listed molecule: IC50.
1. Cc1cc(Nc2ncc(-c3ccc(Cl)c(O[C@@H](C)Cn4cnnn4)c3)cn2)n(-c2ccccn2)n1
2. COc1nc(N2CCN(CC(F)(F)F)CC2)ccc1Nc1ncc(-c2ccc(Cl)c(O[C@@H](C)Cn3cnnn3)c2)cn1
3. C[C@@H](Cn1cnnn1)Oc1cc(-c2cnc(Nc3cn(C4CCN(C(=O)OC(C)(C)C)CC4)nc3OCC(F)(F)F)nc2)ccc1Cl

stdout:
["≥ 100 nM", "≥ 100 nM", "10 to 100 nM"]
